Entry source: the Human Domainome abundance scans (Beltran et al. 2025)

B1: Ankyrin repeat and SAM domain-containing protein 6, residues 774 to 836; numbered along this chain, Q68DC2 (parent)
chain: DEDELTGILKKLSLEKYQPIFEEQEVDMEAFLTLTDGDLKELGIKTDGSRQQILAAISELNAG

variants of: B1; experiment: abundance fitness (aPCA) (normalised: wild type 0, dead -1); higher = more abundant; growth selection in yeast, the domain comes from the species named; conditions: Homo sapiens

{"Macromolecule sequence": "DEDELTGILKKLSLEKYQPIFEEQLVDMEAFLTLTDGDLKELGIKTDGSRQQILAAISELNAG [E25L]", "abundance fitness": -0.293}
{"Macromolecule sequence": "DEDELTGILKKLSLEKYQPIFEEQEVDMEAFLTLTDGDLKELGIKTDGSRQQILAAISEANAG [L60A]", "abundance fitness": -0.147}
{"Macromolecule sequence": "DEDELTNILKKLSLEKYQPIFEEQEVDMEAFLTLTDGDLKELGIKTDGSRQQILAAISELNAG [G7N]", "abundance fitness": -0.092}
{"Macromolecule sequence": "DEDELTGILKKLSLEKYQPIFEEQEVDMEAFLTLTDGDLKELGIKTDGSRQQILAAISELRAG [N61R]", "abundance fitness": 0.007}
{"Macromolecule sequence": "DEDELTGILKKLSLEKYQPIFEEQEVDMEAFLTLTDGDLKELGIKHDGSRQQILAAISELNAG [T46H]", "abundance fitness": 0.151}
{"Macromolecule sequence": "DEDELTGILKKLSLEKYQPIFEEQEVDMEAFLTLTDGDLKELGIKTDWSRQQILAAISELNAG [G48W]", "abundance fitness": -0.424}
{"Macromolecule sequence": "DEDELTGILKKLSLEKYQPIFEEQEVDMEAFLTLTDGDLKELGIKTDGSRQQVLAAISELNAG [I53V]", "abundance fitness": -0.104}
{"Macromolecule sequence": "DEDELTGILKKLSLEKYQPIFEEQEVDMEAFLTLTDGDLKELGIKTDGSRQQILAAISELQAG [N61Q]", "abundance fitness": -0.127}
{"Macromolecule sequence": "DEDELTGILKKLSLEKYQPIFEEQEVYMEAFLTLTDGDLKELGIKTDGSRQQILAAISELNAG [D27Y]", "abundance fitness": -0.729}
{"Macromolecule sequence": "DEDELTGILKKLSLEKYQPIFEEQEVDMETFLTLTDGDLKELGIKTDGSRQQILAAISELNAG [A30T]", "abundance fitness": -0.125}
{"Macromolecule sequence": "DEDELTGILKKLSLEKYQPIFEEQEVDMEAFLTLTDGDLKELGIKEDGSRQQILAAISELNAG [T46E]", "abundance fitness": 0.084}
{"Macromolecule sequence": "DEDELTGILKKLSLEKYQPIFEEQEVDMEAFLTLFDGDLKELGIKTDGSRQQILAAISELNAG [T35F]", "abundance fitness": -0.779}
{"Macromolecule sequence": "DEDELTGILKKLSLEKYQPIFEEQEVDMEAFLTLTDEDLKELGIKTDGSRQQILAAISELNAG [G37E]", "abundance fitness": -0.001}
{"Macromolecule sequence": "DEDELTGILKKLSLEKYQPIFEEQEVDMEAFLTLTDGDLKELGIKTDGSRQQILAAISELHAG [N61H]", "abundance fitness": -0.007}
{"Macromolecule sequence": "DEDESTGILKKLSLEKYQPIFEEQEVDMEAFLTLTDGDLKELGIKTDGSRQQILAAISELNAG [L5S]", "abundance fitness": -0.84}
{"Macromolecule sequence": "DEDELTGILKKLSLEKYWPIFEEQEVDMEAFLTLTDGDLKELGIKTDGSRQQILAAISELNAG [Q18W]", "abundance fitness": -0.31}
{"Macromolecule sequence": "DVDELTGILKKLSLEKYQPIFEEQEVDMEAFLTLTDGDLKELGIKTDGSRQQILAAISELNAG [E2V]", "abundance fitness": -0.234}
{"Macromolecule sequence": "DEDELTGILKKLSQEKYQPIFEEQEVDMEAFLTLTDGDLKELGIKTDGSRQQILAAISELNAG [L14Q]", "abundance fitness": -1.17}
{"Macromolecule sequence": "DEDELTGILKKLSLEKYQPIFEEQEVDMPAFLTLTDGDLKELGIKTDGSRQQILAAISELNAG [E29P]", "abundance fitness": -0.105}
{"Macromolecule sequence": "DEDELTGILWKLSLEKYQPIFEEQEVDMEAFLTLTDGDLKELGIKTDGSRQQILAAISELNAG [K10W]", "abundance fitness": -0.831}
{"Macromolecule sequence": "DEDELTGILKKLSLEKYQPIFEEQEVDMEAFLTLTDGDLKELGIKTDGSRQAILAAISELNAG [Q52A]", "abundance fitness": -0.04}
{"Macromolecule sequence": "DEDELTGILKKLSLEKYQPIFEEQEVDMEAFLTLTDHDLKELGIKTDGSRQQILAAISELNAG [G37H]", "abundance fitness": -0.087}
{"Macromolecule sequence": "DEDELTGILKKLSLEKYNPIFEEQEVDMEAFLTLTDGDLKELGIKTDGSRQQILAAISELNAG [Q18N]", "abundance fitness": -0.538}
{"Macromolecule sequence": "DEDELTGILKKLSLEKYQPIFEEQEVDMEAFLTLTDGDLKELGIITDGSRQQILAAISELNAG [K45I]", "abundance fitness": -0.348}
{"Macromolecule sequence": "DEDELTGILKKLSLEKYQPIFEEQEVDMEAFLTLTDGDLKELGIKTDGVRQQILAAISELNAG [S49V]", "abundance fitness": 0.062}
{"Macromolecule sequence": "DEDELTGILKKLSLEKYQPIFEEQEVDMEAFLTLTDGYLKELGIKTDGSRQQILAAISELNAG [D38Y]", "abundance fitness": -1.11}
{"Macromolecule sequence": "DEDELTMILKKLSLEKYQPIFEEQEVDMEAFLTLTDGDLKELGIKTDGSRQQILAAISELNAG [G7M]", "abundance fitness": 0.199}
{"Macromolecule sequence": "DEDELTGILKKLSLEKYQPIFEEQEVDMEAFLTLTDGDLKELGICTDGSRQQILAAISELNAG [K45C]", "abundance fitness": -0.191}
{"Macromolecule sequence": "DEDELTGILKKLALEKYQPIFEEQEVDMEAFLTLTDGDLKELGIKTDGSRQQILAAISELNAG [S13A]", "abundance fitness": -0.067}
{"Macromolecule sequence": "DEDELTGILKKLSLEKYQPIFVEQEVDMEAFLTLTDGDLKELGIKTDGSRQQILAAISELNAG [E22V]", "abundance fitness": -0.256}
{"Macromolecule sequence": "DEDELTGILKKLSLEKQQPIFEEQEVDMEAFLTLTDGDLKELGIKTDGSRQQILAAISELNAG [Y17Q]", "abundance fitness": -0.339}
{"Macromolecule sequence": "DLDELTGILKKLSLEKYQPIFEEQEVDMEAFLTLTDGDLKELGIKTDGSRQQILAAISELNAG [E2L]", "abundance fitness": 0.288}
{"Macromolecule sequence": "DEDELTGILKKLSLEKYQPIFEEQEVDMEAFLTLTDDDLKELGIKTDGSRQQILAAISELNAG [G37D]", "abundance fitness": 0.117}
{"Macromolecule sequence": "DEDELTGILKKLSLEKYQPIFEEQEVDMEAFLTLTDGDLKELGIKTIGSRQQILAAISELNAG [D47I]", "abundance fitness": -0.058}
{"Macromolecule sequence": "DEDELTGILKKLSLEKYQPIFEEQEVDMEAFLTLTDGDLKELGIMTDGSRQQILAAISELNAG [K45M]", "abundance fitness": 0.008}
{"Macromolecule sequence": "DEDELTGILKKLSLEKYQPIFEEQEVDMEAFLTLTDGDLKELGIKTDGSRQNILAAISELNAG [Q52N]", "abundance fitness": -0.193}
{"Macromolecule sequence": "DEDELTGILKKLSLEKYQPIFEEQEVDMEAFLTLTDGDLKELGIKTDGSRQQILAKISELNAG [A56K]", "abundance fitness": -0.202}
{"Macromolecule sequence": "DEDELTGILKKLSLEKYQCIFEEQEVDMEAFLTLTDGDLKELGIKTDGSRQQILAAISELNAG [P19C]", "abundance fitness": -0.247}
